measurement_description: Stability in pig kidney microsomes assessed as conversion of prodrug into pentamidine per mg protein
Type: ADME, Sus scrofa, Microsome
test_readout: Stability (nmol/min/mg)
Report only the number, with the unit nmol/min/mg understood.

Qu. Determine its reported Stability: CC(C)[C@H](N)C(=O)O/N=C(\N)c1ccc(OCCCCCOc2ccc(/C(N)=N/OC(=O)[C@@H](N)C(C)C)cc2)cc1
Ans. 0.7

---

measurement_description: Stability in human kidney mitochondria assessed as conversion of prodrug into pentamidine per mg protein
Assay type: ADME
test_readout: Stability (nmol/min/mg)
Report only the number, with the unit nmol/min/mg understood.

Qu. Determine its reported Stability: CC(C)[C@H](N)C(=O)O/N=C(\N)c1ccc(OCCCCCOc2ccc(/C(N)=N/OC(=O)[C@@H](N)C(C)C)cc2)cc1
Ans. 0.4

---

System: Liver microsomes
measurement_description: Stability in human liver microsomes assessed as conversion of prodrug into pentamidine per mg protein
Assay type: ADME, Microsome
test_readout: Stability (nmol/min/mg)
Report only the number, with the unit nmol/min/mg understood.

Qu. Determine its reported Stability: CC(C)[C@H](N)C(=O)O/N=C(\N)c1ccc(OCCCCCOc2ccc(/C(N)=N/OC(=O)[C@@H](N)C(C)C)cc2)cc1
Ans. 0.3

---

measurement_description: Stability in pig liver microsomes assessed as conversion of prodrug into benzamidine per mg protein
Assay type: ADME, Sus scrofa, Microsome
test_readout: Stability (nmol/min/mg)
Report only the number, with the unit nmol/min/mg understood.

Qu. Determine its reported Stability: CC(C)[C@H](N)C(=O)O/N=C(\N)c1ccccc1
Ans. 7

---

Test system: Liver microsomes
measurement_description: Stability in human liver microsomes assessed as conversion of prodrug into benzamidine per mg protein
Assay type: ADME, Microsome
test_readout: Stability (nmol/min/mg)
Report only the number, with the unit nmol/min/mg understood.

Qu. Determine its reported Stability: CC(C)[C@H](N)C(=O)O/N=C(\N)c1ccccc1
Ans. 0.9

---

Test system: Liver
measurement_description: Stability in human liver 9000g supernatant assessed as conversion of prodrug into pentamidine per mg protein
Type: ADME, tissue-based
test_readout: Stability (nmol/min/mg)
Report only the number, with the unit nmol/min/mg understood.

Qu. Determine its reported Stability: CC(C)[C@H](N)C(=O)O/N=C(\N)c1ccc(OCCCCCOc2ccc(/C(N)=N/OC(=O)[C@@H](N)C(C)C)cc2)cc1
Ans. 0.2

---

measurement_description: Stability in pig kidney 9000g supernatant assessed as conversion of prodrug into pentamidine per mg protein
Format: ADME, tissue-based, Sus scrofa
test_readout: Stability (nmol/min/mg)
Report only the number, with the unit nmol/min/mg understood.

Qu. Determine its reported Stability: CC(C)[C@H](N)C(=O)O/N=C(\N)c1ccc(OCCCCCOc2ccc(/C(N)=N/OC(=O)[C@@H](N)C(C)C)cc2)cc1
Ans. 0.2

---

measurement_description: Stability in pig liver mitochondria assessed as conversion of prodrug into benzamidine per mg protein
Format: ADME, Sus scrofa
test_readout: Stability (nmol/min/mg)
Report only the number, with the unit nmol/min/mg understood.

Qu. Determine its reported Stability: CC(C)[C@H](N)C(=O)O/N=C(\N)c1ccccc1
Ans. 8.6

---

measurement_description: Stability in human kidney mitochondria assessed as conversion of prodrug into benzamidine per mg protein
Assay type: ADME
test_readout: Stability

Qu. Determine its reported Stability: CC(C)[C@H](N)C(=O)O/N=C(\N)c1ccccc1
Ans. 2 nmol/min/mg

---

Test system: Rattus norvegicus
measurement_description: Cmax in Wistar rat assessed as benzamidine at 50 mg/kg, po
Type: ADME, organism-based
Set-up: dose 50 mg/kg, route oral
test_parameters: in vivo
test_readout: Cmax (µM)
Report only the number, with the unit µM understood.

Qu. Determine its reported Cmax: CC(C)[C@H](N)C(=O)O/N=C(\N)c1ccccc1
Ans. 23.3

---

System: Liver
measurement_description: Stability in human liver 9000g supernatant assessed as conversion of prodrug into benzamidine per mg protein
Type: ADME, tissue-based
test_readout: Stability (nmol/min/mg)
Report only the number, with the unit nmol/min/mg understood.

Qu. Determine its reported Stability: CC(C)[C@H](N)C(=O)O/N=C(\N)c1ccccc1
Ans. 0.2

---

measurement_description: Stability in pig kidney mitochondria assessed as conversion of prodrug into pentamidine per mg protein
Format: ADME, Sus scrofa
test_readout: Stability (nmol/min/mg)
Report only the number, with the unit nmol/min/mg understood.

Qu. Determine its reported Stability: CC(C)[C@H](N)C(=O)O/N=C(\N)c1ccc(OCCCCCOc2ccc(/C(N)=N/OC(=O)[C@@H](N)C(C)C)cc2)cc1
Ans. 0.8

---

measurement_description: Stability in pig liver 9000g supernatant assessed as conversion of prodrug into benzamidine per mg protein
Type: ADME, tissue-based, Sus scrofa
test_readout: Stability (nmol/min/mg)
Report only the number, with the unit nmol/min/mg understood.

Qu. Determine its reported Stability: CC(C)[C@H](N)C(=O)O/N=C(\N)c1ccccc1
Ans. 3.4

---

measurement_description: Stability in human liver mitochondria assessed as conversion of prodrug into benzamidine per mg protein
Type: ADME
test_readout: Stability (nmol/min/mg)
Report only the number, with the unit nmol/min/mg understood.

Qu. Determine its reported Stability: CC(C)[C@H](N)C(=O)O/N=C(\N)c1ccccc1
Ans. 1.8

---

measurement_description: Stability in pig liver microsomes assessed as conversion of prodrug into pentamidine per mg protein
Assay type: ADME, Sus scrofa, Microsome
test_readout: Stability (nmol/min/mg)
Report only the number, with the unit nmol/min/mg understood.

Qu. Determine its reported Stability: CC(C)[C@H](N)C(=O)O/N=C(\N)c1ccc(OCCCCCOc2ccc(/C(N)=N/OC(=O)[C@@H](N)C(C)C)cc2)cc1
Ans. 0.5
